experiment: Protonation constants by (traditional) potentiometric titration (TPT), SUPERQUAD; settings: log K, pKa5 (L4− + H+ ⇋ HL3−), TPT, 0.1 M NaNO3, 25 °C
measured.attribute: pKa

# molecule, numeric.readout
data = [
    ("NCCCCCC(O)(P(=O)(O)O)P(=O)(O)O [Compound 4, reference compound]", 11.9),
]

---

assay: Effect of pH on aqueous solubility; details: water, pH adjusted with NaOH or HCl, 21 °C, pH 3, aqueous buffer, thermodynamic from solid
List of solubility at 30 min values.

# smiles.structure, solubility at 30 min [µg/mL]
measured = [
    ("NCCCCCCCCCCCC(O)(P(=O)(O)O)P(=O)(O)O", 80),
    ("NCCCCCCCCCCC(O)(P(=O)(O)O)P(=O)(O)O", 80),
    ("NCCCCCCCCC(O)(P(=O)(O)O)P(=O)(O)O", 1170),
]
